target_entity: DNA gyrase (Escherichia coli, UniProt P0AES4+P0AES6)
test_protocol: Inhibition of Escherichia coli DNA gyrase ATPase activity incubated for 80 mins
Assay type: protein-complex assay
Please assign n whenever IC50 is at or above 200 nM, and y whenever it is below.

compound	assigned_class
O=C1COc2ccc(N3CC(CNC4Cc5cccc(Cl)c5C4)OC3=O)nc2N1 (configuration not stated)	n
N#Cc1cccc2c1CC(CNCCC1CN(c3ccc4c(n3)NC(=O)CO4)C(=O)O1)C2 (configuration not stated)	y
O=c1cc(NCC2CN(CC3Cc4ccnc(Cl)c4C3)C2)c2cc(F)ccc2o1 (configuration not stated)	y
O=C1COc2ccc(N3CC(CCCNC4CCc5c(Cl)cccc54)OC3=O)nc2N1 (configuration not stated)	y
O=C1COc2ccc(N3CC(CCNC4Cc5cccc(Cl)c5C4)OC3=O)nc2N1 (configuration not stated)	n
O=C1COc2ccc(N3CC(CCCNC4Cc5cccc(Cl)c5C4)OC3=O)nc2N1 (configuration not stated)	y
O=C1COc2ccc(N3CC(CCCNC4Cc5ccc(F)cc5C4)OC3=O)nc2N1 (configuration not stated)	y

====

System: Klebsiella pneumoniae
test_protocol: Antibacterial activity against Klebsiella pneumoniae ATCC BAA-1705 incubated for 20 to 24 hrs by CLSI based broth microdilution method
Assay type: functional
measurement_parameters: time 20-24 hrs
quantity: log10 of MIC (log10 of the value in µg/mL)

molecule	target_entity	log10 of MIC
O=C1COc2ccc(N3CC(CCCNC4Cc5ccc(F)cc5C4)OC3=O)nc2N1 (stereo not given)	Klebsiella pneumoniae	0.90
O=C1COc2ccc(N3CC(CCNCC4Cc5cccc(F)c5C4)OC3=O)nc2N1 (stereo not given)	Klebsiella pneumoniae	0.60
O=C1COc2ccc(N3CC(CCNCC4Cc5ccccc5C4)OC3=O)nc2N1 (stereo not given)	Klebsiella pneumoniae	0.90
N#Cc1cccc2c1CC(CNCCC1CN(c3ccc4c(n3)NC(=O)CO4)C(=O)O1)C2 (stereo not given)	Klebsiella pneumoniae	0.00
O=C1COc2ccc(N3CC(CNCCC4Cc5cccc(Cl)c5C4)OC3=O)nc2N1 (stereo not given)	Klebsiella pneumoniae	0.60
N#Cc1cccc2c1CC(NCCCC1CN(c3ccc4c(n3)NC(=O)CO4)C(=O)O1)C2 (stereo not given)	Klebsiella pneumoniae	0.30
O=C1COc2ccc(N3CC(CCCNC4Cc5cccc(F)c5C4)OC3=O)nc2N1 (stereo not given)	Klebsiella pneumoniae	0.60
O=C1COc2ccc(N3CC(CCCNC4Cc5ccc(Cl)cc5C4)OC3=O)nc2N1 (stereo not given)	Klebsiella pneumoniae	0.90
O=C1COc2ccc(N3CC(CCCNC4CCc5c(Cl)cccc54)OC3=O)nc2N1 (stereo not given)	Klebsiella pneumoniae	1.20

====

target_entity: DNA gyrase (Escherichia coli, UniProt P0AES4+P0AES6)
test_protocol: Inhibition of Escherichia coli DNA gyrase ATPase activity incubated for 80 mins
Type: protein-complex assay
Response field label: string, one of TRUE (IC50 strictly below 200 nM) or FALSE.

compound	target_entity	assigned_class
O=C1COc2ccc(N3CC(CCCNC4Cc5ccc(Cl)cc5C4)OC3=O)nc2N1 (stereo not given)	DNA gyrase (Escherichia coli, UniProt P0AES4+P0AES6)	FALSE
O=C1COc2ccc(N3CC(CCNCC4Cc5cccc(F)c5C4)OC3=O)nc2N1 (stereo not given)	DNA gyrase (Escherichia coli, UniProt P0AES4+P0AES6)	TRUE
N#Cc1cccc2c1CC(NCCCC1CN(c3ccc4c(n3)NC(=O)CO4)C(=O)O1)C2 (stereo not given)	DNA gyrase (Escherichia coli, UniProt P0AES4+P0AES6)	TRUE
O=C1COc2ccc(N3CC(CCNCC4Cc5ccccc5C4)OC3=O)nc2N1 (stereo not given)	DNA gyrase (Escherichia coli, UniProt P0AES4+P0AES6)	TRUE
O=C1COc2ccc(N3CC(CCNCC4Cc5cccc(Cl)c5C4)OC3=O)nc2N1 (stereo not given)	DNA gyrase (Escherichia coli, UniProt P0AES4+P0AES6)	TRUE
O=C1COc2ccc(N3CC(CNCC4Cc5cccc(Cl)c5C4)OC3=O)nc2N1 (stereo not given)	DNA gyrase (Escherichia coli, UniProt P0AES4+P0AES6)	FALSE
O=C1COc2ccc(N3CC(CCCNC4Cc5ccccc5C4)OC3=O)nc2N1 (stereo not given)	DNA gyrase (Escherichia coli, UniProt P0AES4+P0AES6)	FALSE
O=C1COc2ccc(N3CC(CCNCCC4Cc5cccc(Cl)c5C4)OC3=O)nc2N1 (stereo not given)	DNA gyrase (Escherichia coli, UniProt P0AES4+P0AES6)	TRUE
O=C1COc2ccc(N3CC(CNCCC4Cc5cccc(Cl)c5C4)OC3=O)nc2N1 (stereo not given)	DNA gyrase (Escherichia coli, UniProt P0AES4+P0AES6)	TRUE
O=C1COc2ccc(N3CC(CCCNC4Cc5cccc(F)c5C4)OC3=O)nc2N1 (stereo not given)	DNA gyrase (Escherichia coli, UniProt P0AES4+P0AES6)	TRUE

====

Listed below: MIC values for each entry.
Tested on: Klebsiella pneumoniae
test_protocol: Antibacterial activity against Klebsiella pneumoniae ATCC BAA-1705 incubated for 20 to 24 hrs by CLSI based broth microdilution method
Type: functional
measurement_parameters: time 20-24 hrs

compound	target_entity	scale_unit	MIC
O=C1COc2ccc(N3CC(CCNCC4Cc5cccc(Cl)c5C4)OC3=O)nc2N1 (configuration not stated)	Klebsiella pneumoniae	µg/mL	2
O=C1COc2ccc(N3CC(CCCNC4Cc5ccccc5C4)OC3=O)nc2N1 (configuration not stated)	Klebsiella pneumoniae	µg/mL	16
O=C1COc2ccc(N3CC(CCCNC4Cc5cccc(Cl)c5C4)OC3=O)nc2N1 (configuration not stated)	Klebsiella pneumoniae	µg/mL	2
O=c1cc(NCC2CN(CC3Cc4ccnc(Cl)c4C3)C2)c2cc(F)ccc2o1 (configuration not stated)	Klebsiella pneumoniae	µg/mL	32
O=C1COc2ccc(N3CC(CNCC4Cc5cccc(Cl)c5C4)OC3=O)nc2N1 (configuration not stated)	Klebsiella pneumoniae	µg/mL	32
O=C1COc2ccc(N3CC(CCNC4Cc5cccc(Cl)c5C4)OC3=O)nc2N1 (configuration not stated)	Klebsiella pneumoniae	µg/mL	16
O=C1COc2ccc(N3CC(CCNCCC4Cc5cccc(Cl)c5C4)OC3=O)nc2N1 (configuration not stated)	Klebsiella pneumoniae	µg/mL	8

Reference source for all entries: ChEMBL document CHEMBL5321266
